Each recorded value in this set is attributed to ChEMBL document CHEMBL2057107.

target_entity: Amine oxidase [flavin-containing] A (Homo sapiens, UniProt P21397)
Sequence (P21397 whole entry): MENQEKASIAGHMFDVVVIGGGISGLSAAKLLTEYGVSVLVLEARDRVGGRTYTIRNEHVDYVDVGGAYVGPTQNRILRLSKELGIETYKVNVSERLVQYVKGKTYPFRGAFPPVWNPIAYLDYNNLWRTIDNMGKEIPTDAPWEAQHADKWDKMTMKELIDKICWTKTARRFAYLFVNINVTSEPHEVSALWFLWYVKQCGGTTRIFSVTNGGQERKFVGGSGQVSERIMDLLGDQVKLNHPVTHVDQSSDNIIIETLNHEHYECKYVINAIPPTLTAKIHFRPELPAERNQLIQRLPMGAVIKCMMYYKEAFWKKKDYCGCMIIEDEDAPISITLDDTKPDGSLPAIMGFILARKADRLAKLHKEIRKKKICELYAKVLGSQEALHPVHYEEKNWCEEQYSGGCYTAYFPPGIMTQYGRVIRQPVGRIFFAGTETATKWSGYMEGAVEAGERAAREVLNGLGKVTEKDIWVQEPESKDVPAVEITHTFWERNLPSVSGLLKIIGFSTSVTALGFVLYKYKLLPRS
experimental_details: Inhibition of human recombinant MAO-A using kynuramine as substrate preincubated with compound for 15 mins measured after 20 mins by fluorometric analysis
Rule for this label: true (1) means IC50 is less than 2 µM; false (0) means IC50 is at least 2 µM.

1) CN1C(=N)NC(=O)/C1=C\c1c[nH]c2cc(Br)ccc12 = false (0)
2) C/N=C1\NC(=O)/C(=C\c2c[nH]c3ccccc23)N1C [ISOPLYSIN A] = false (0)
3) CN1C(=N)N(C)/C(=C/c2c[nH]c3ccc(Br)cc23)C1=O = true (1)
4) C/N=C1/N/C(=C\c2c[nH]c3cc(Br)ccc23)C(=O)N1C = true (1)
5) CN1C(=N)NC(=O)/C1=C\c1c[nH]c2ccc(Br)cc12 = false (0)
6) CN1C(=N)N/C(=C\c2c[nH]c3cccc(Br)c23)C1=O = true (1)
7) C/N=C1\NC(=O)/C(=C/c2c[nH]c3cccc(Br)c23)N1 = true (1)
8) O=C1NC(=S)N/C1=C\c1c[nH]c2ccc(Br)cc12 = true (1)
9) CN1C(=N)N/C(=C\c2c[nH]c3cc(Br)ccc23)C1=O = true (1)
10) CSC1=NC(=O)/C(=C/c2c[nH]c3cc(Br)ccc23)N1 = true (1)
11) C/N=C1\NC(=O)/C(=C\c2c[nH]c3cc(Br)ccc23)N1C = true (1)
12) C/N=C1/N/C(=C\c2c[nH]c3c(Br)cccc23)C(=O)N1C = true (1)
13) CSC1=N/C(=C\c2c[nH]c3ccccc23)C(=O)N1 = false (0)
14) N=C1NC(=O)/C(=C/c2c[nH]c3cccc(Br)c23)N1 = false (0)
15) CSC1=NC(=O)/C(=C/c2c[nH]c3c(Br)cccc23)N1 = true (1)
16) N=C1NC(=O)/C(=C/c2c[nH]c3c(Br)cccc23)N1 = false (0)
17) N=C1NC(=O)/C(=C/c2c[nH]c3ccc(Br)cc23)N1 = false (0)
18) C/N=C1\NC(=O)/C(=C\c2c[nH]c3c(Br)cccc23)N1C = true (1)
19) CN1C(=N)NC(=O)/C1=C\c1c[nH]c2c(Br)cccc12 = false (0)
20) CN1C(=N)NC(=O)/C1=C\c1c[nH]c2cccc(Br)c12 = false (0)
21) CN1C(=N)N(C)/C(=C/c2c[nH]c3ccccc23)C1=O [APLYSINOPSIN] = true (1)
22) CN1C(=N)N(C)/C(=C/c2c[nH]c3c(Br)cccc23)C1=O = true (1)
23) O=C1NC(=S)N/C1=C\c1c[nH]c2ccccc12 = false (0)
24) CN1C(=N)N/C(=C\c2c[nH]c3ccc(Br)cc23)C1=O = true (1)
25) C/N=C1\NC(=O)/C(=C/c2c[nH]c3ccc(Br)cc23)N1 = true (1)
26) CN1C(=N)N(C)/C(=C/c2c[nH]c3cc(Br)ccc23)C1=O = true (1)
27) CN1C(=N)N(C)/C(=C/c2c[nH]c3cccc(Br)c23)C1=O = false (0)
28) C/N=C1\NC(=O)/C(=C/c2c[nH]c3ccccc23)N1 = false (0)
29) C/N=C1\NC(=O)/C(=C/c2c[nH]c3c(Br)cccc23)N1 = false (0)
30) C/N=C1\N(C)C(=O)/C(=C\c2c[nH]c3ccc(Br)cc23)N1C = true (1)
31) C/N=C1\NC(=O)/C(=C\c2c[nH]c3ccc(Br)cc23)N1C = true (1)
32) C/N=C1\NC(=O)/C(=C/c2c[nH]c3cc(Br)ccc23)N1 = false (0)
33) N=C1NC(=O)/C(=C/c2c[nH]c3ccccc23)N1 = false (0)
34) C/N=C1\N(C)C(=O)/C(=C\c2c[nH]c3ccccc23)N1C [METHYLAPLYSINOPSIN] = true (1)
35) O=C1NC(=S)N/C1=C\c1c[nH]c2cc(Br)ccc12 = true (1)
36) CSC1=NC(=O)/C(=C/c2c[nH]c3cccc(Br)c23)N1 = true (1)
37) C/N=C1/N/C(=C\c2c[nH]c3ccc(Br)cc23)C(=O)N1C = false (0)
38) C/N=C1/N/C(=C\c2c[nH]c3cccc(Br)c23)C(=O)N1C = false (0)

###

Species on record: Homo sapiens
experimental_details: Selectivity ratio of IC50 for human recombinant MAO-B to IC50 for human recombinant MAO-A
# binning rule on Ratio IC50: LOW = under 4, MEDIUM = from 4 up to 8, HIGH = 8 and over

1. CN1C(=N)N(C)/C(=C/c2c[nH]c3ccccc23)C1=O = HIGH
2. CN1C(=N)N/C(=C\c2c[nH]c3c(Br)cccc23)C1=O = HIGH
3. CSC1=NC(=O)/C(=C/c2c[nH]c3cccc(Br)c23)N1 = MEDIUM
4. CN1C(=N)NC(=O)/C1=C\c1c[nH]c2c(Br)cccc12 = MEDIUM
5. N=C1NC(=O)/C(=C/c2c[nH]c3cc(Br)ccc23)N1 = MEDIUM
6. C/N=C1\NC(=O)/C(=C\c2c[nH]c3c(Br)cccc23)N1C = MEDIUM
7. N=C1NC(=O)/C(=C/c2c[nH]c3cccc(Br)c23)N1 = HIGH
8. CN1C(=N)NC(=O)/C1=C\c1c[nH]c2cc(Br)ccc12 = MEDIUM
9. CN1C(=N)N(C)/C(=C/c2c[nH]c3ccc(Br)cc23)C1=O = HIGH
10. O=C1NC(=S)N/C1=C\c1c[nH]c2ccc(Br)cc12 = LOW
11. C/N=C1/N/C(=C\c2c[nH]c3ccc(Br)cc23)C(=O)N1C = MEDIUM
12. C/N=C1\N(C)C(=O)/C(=C\c2c[nH]c3ccc(Br)cc23)N1C = MEDIUM
13. O=C1NC(=S)N/C1=C\c1c[nH]c2cccc(Br)c12 = LOW
14. C/N=C1\NC(=O)/C(=C/c2c[nH]c3ccc(Br)cc23)N1 = LOW
15. CN1C(=N)N(C)/C(=C/c2c[nH]c3c(Br)cccc23)C1=O = HIGH
16. CN1C(=N)N/C(=C\c2c[nH]c3ccc(Br)cc23)C1=O = HIGH
17. CSC1=NC(=O)/C(=C/c2c[nH]c3c(Br)cccc23)N1 = LOW
18. C/N=C1/N/C(=C\c2c[nH]c3cccc(Br)c23)C(=O)N1C = MEDIUM
19. C/N=C1\N(C)C(=O)/C(=C\c2c[nH]c3cccc(Br)c23)N1C = HIGH
20. CSC1=NC(=O)/C(=C/c2c[nH]c3ccc(Br)cc23)N1 = LOW
21. O=C1NC(=S)N/C1=C\c1c[nH]c2c(Br)cccc12 = LOW
22. C/N=C1\N(C)C(=O)/C(=C\c2c[nH]c3ccccc23)N1C = HIGH
23. N=C1NC(=O)/C(=C/c2c[nH]c3ccc(Br)cc23)N1 = LOW
24. CSC1=NC(=O)/C(=C/c2c[nH]c3cc(Br)ccc23)N1 = LOW
